Ref: the supplement of paper PMC11908140

B1: library; numbered along this chain (parent)
chain: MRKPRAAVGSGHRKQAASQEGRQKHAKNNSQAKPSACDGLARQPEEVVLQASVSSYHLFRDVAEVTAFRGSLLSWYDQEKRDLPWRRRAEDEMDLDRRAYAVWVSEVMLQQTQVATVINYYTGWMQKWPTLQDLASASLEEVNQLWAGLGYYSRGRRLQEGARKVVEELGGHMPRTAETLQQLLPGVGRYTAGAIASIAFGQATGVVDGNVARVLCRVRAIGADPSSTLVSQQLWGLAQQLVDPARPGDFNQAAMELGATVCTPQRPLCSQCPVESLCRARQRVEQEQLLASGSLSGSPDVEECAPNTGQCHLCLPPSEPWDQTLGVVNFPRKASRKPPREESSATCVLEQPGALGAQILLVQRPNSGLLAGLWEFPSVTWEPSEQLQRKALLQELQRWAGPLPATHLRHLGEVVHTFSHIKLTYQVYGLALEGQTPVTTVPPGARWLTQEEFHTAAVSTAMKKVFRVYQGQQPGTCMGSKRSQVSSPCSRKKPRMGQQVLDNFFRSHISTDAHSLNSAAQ

variants of: B1; assay: 8OG:A repair function score (normalized; synonymous = 0, nonsense = -1) (normalized log-likelihood score); higher = more repair activity (WT-like); details: with 8OG:A DNA repair reporter (GFP) in HEK-293 MUTYH KO cells;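 note: cells sorted at 72 h after reporter transfection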
Use True when the recorded 8OG:A repair function score is no lower than -0.02; use False when it is lower.

Req: Given N251I , state whether its 8OG:A repair function score is at least -0.02.
Resp: False

Req: Given D96H , state whether its 8OG:A repair function score is at least -0.02.
Resp: False

Req: Given T380I , state whether its 8OG:A repair function score is at least -0.02.
Resp: False

Req: Given V438E , state whether its 8OG:A repair function score is at least -0.02.
Resp: True

Req: Given K463W , state whether its 8OG:A repair function score is at least -0.02.
Resp: False

Req: Given S138T , state whether its 8OG:A repair function score is at least -0.02.
Resp: True

Req: Given A445V , state whether its 8OG:A repair function score is at least -0.02.
Resp: False

Req: Given L325T , state whether its 8OG:A repair function score is at least -0.02.
Resp: False

Req: Given E275M , state whether its 8OG:A repair function score is at least -0.02.
Resp: True

Req: Given L145D , state whether its 8OG:A repair function score is at least -0.02.
Resp: True

Req: Given L295C , state whether its 8OG:A repair function score is at least -0.02.
Resp: False

Req: Given T449L , state whether its 8OG:A repair function score is at least -0.02.
Resp: False

Req: Given R86W , state whether its 8OG:A repair function score is at least -0.02.
Resp: False

Req: Given S197C , state whether its 8OG:A repair function score is at least -0.02.
Resp: False

Req: Given L423G , state whether its 8OG:A repair function score is at least -0.02.
Resp: True

Req: Given S292T , state whether its 8OG:A repair function score is at least -0.02.
Resp: False

Req: Given L501W , state whether its 8OG:A repair function score is at least -0.02.
Resp: True

Req: Given V274F , state whether its 8OG:A repair function score is at least -0.02.
Resp: False

Req: Given G193L , state whether its 8OG:A repair function score is at least -0.02.
Resp: False

Req: Given A513W , state whether its 8OG:A repair function score is at least -0.02.
Resp: False

Req: Given W399L , state whether its 8OG:A repair function score is at least -0.02.
Resp: True

Req: Given T439A , state whether its 8OG:A repair function score is at least -0.02.
Resp: True
